These compounds were tested on Cyclophilin A (Homo sapiens); pIC50 is the recorded read-out.
Sequence (P62937 whole entry, species assumed): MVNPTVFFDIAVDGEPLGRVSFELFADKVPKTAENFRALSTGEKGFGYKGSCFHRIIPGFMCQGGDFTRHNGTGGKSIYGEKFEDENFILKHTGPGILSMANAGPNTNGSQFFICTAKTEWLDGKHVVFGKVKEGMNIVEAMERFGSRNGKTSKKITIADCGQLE
pIC50: −log10 of the molar value. Where a SMILES comes first, the peptide text is derived from it. [ ]: non-standard residue; d: D form. MeBmt = C/C=C/C[C@@H](C)[C@@H](O)[C@H](NC)C(=O)O; NMeL = CN[C@@H](CC(C)C)C(=O)O; NMeV = CN[C@H](C(=O)O)C(C)C; NMeA = CN[C@@H](C)C(=O)O; dNMeA = CN[C@H](C)C(=O)O; Abu = CC[C@H](N)C(=O)O; Sar = CNCC(=O)O

Some solved entries appear below for comparison.
C/C=C/C[C@@H](C)[C@@H](O)[C@H]1C(=O)N[C@@H](CC)C(=O)N(C)CC(=O)N(C)[C@@H](CCCC)C(=O)N[C@@H](C(C)C)C(=O)N(C)[C@@H](CC(C)C)C(=O)N[C@@H](CC(C)C)C(=O)N[C@H](C)C(=O)N(C)[C@@H](CC(C)C)C(=O)N(C)[C@@H](CC(C)C)C(=O)N(C)[C@@H](C(C)C)C(=O)N1C
> 5.70
C/C=C/C[C@@H](C)[C@@H](O)[C@H]1C(=O)N[C@@H](CC)C(=O)N(C)CC(=O)N(C)[C@@H](C(C)C)C(=O)N[C@@H](C(C)C)C(=O)N(C)[C@@H](C)C(=O)N[C@@H](CC(C)C)C(=O)N[C@H](C)C(=O)N(C)[C@@H](CC(C)C)C(=O)N(C)[C@@H](CC(C)C)C(=O)N(C)[C@@H](C(C)C)C(=O)N1C [Compound C89] (cyclo([MeBmt][Abu][Sar][NMeV]V[NMeA]L[dA][NMeL][NMeL][NMeV]))
> 5.70

Kindly review the next compound as well.
Incoming: Form entry - test system: Cyclophilin A (Homo sapiens); read-out: pIC50; compound: C/C=C/C[C@@H](C)[C@@H](O)[C@H]1C(=O)N[C@@H](CC)C(=O)N(C)CC(=O)N(C)[C@H](C)C(=O)N[C@@H](CC(C)C)C(=O)N(C)[C@@H](CC(C)C)C(=O)N[C@@H](CC(C)C)C(=O)N[C@H](C)C(=O)N(C)[C@@H](CC(C)C)C(=O)N(C)[C@@H](CC(C)C)C(=O)N(C)[C@@H](C(C)C)C(=O)N1C [Compound C59] (cyclo([MeBmt][Abu][Sar][dNMeA]L[NMeL]L[dA][NMeL][NMeL][NMeV]))
Outgoing: > 5.70

Where these numbers come from: patent US20200199102A1
